This collection of values is drawn from patent US7902373B2.

List of IC50 values.
# system under test: human recombinant H-PGDS (Homo sapiens)
# Sequence (O60760 whole entry): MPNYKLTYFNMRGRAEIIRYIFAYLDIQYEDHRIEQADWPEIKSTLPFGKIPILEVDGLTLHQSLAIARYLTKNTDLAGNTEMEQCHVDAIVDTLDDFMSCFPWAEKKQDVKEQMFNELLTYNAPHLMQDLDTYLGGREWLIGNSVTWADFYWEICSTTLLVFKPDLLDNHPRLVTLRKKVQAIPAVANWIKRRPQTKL
# assay info: Fluorescence intensity h-PGDS TBA enzyme assay
# Format: biochemical
# condition notes: Examples up to 622 (and 3a, 3b)
Please give a number only; it is taken to be in nM.

Assay human recombinant H-PGDS (Homo sapiens), sample `CCN1CCN(C(=O)c2ccc(N3CCC(NC(=O)c4ccc(-c5cccc(F)c5)nc4)CC3)nn2)CC1` , IC50 read: 0.538

IC50 for human recombinant H-PGDS (Homo sapiens) with input `O=C(NC1CCN(CC(F)(F)F)CC1)c1ccc(N2CCC(NC(=O)c3ccc(-c4cccc(F)c4)nc3)CC2)nc1` equals 1.48

IC50 on human recombinant H-PGDS (Homo sapiens) for `Cc1cc(C)c(C#N)c(N2CCC(NC(=O)c3ccc(-c4cccc(F)c4)nc3)CC2)n1` is 1.21

Summary line: `O=C(NC1CCN(c2ncc3c(n2)CCOC3)CC1)c1ccc(-c2cccc(F)c2)nc1` , human recombinant H-PGDS (Homo sapiens), reported IC50 = 1.05
